CC50 at 72 h: recorded values
Test: Cytotoxicity against african green monkey Vero cells after 72 hrs by MTT assay
Assay type: cell-based
Settings: chlorocebus sabaeus
Include the unit after the number when you answer.

IN: For `O=C(/C=C/c1c(Cl)cccc1Cl)NCCNC(=O)/C=C/c1c(Cl)cccc1Cl` , write its CC50 at 72 h.
OUT: 653 µM

IN: Give me measured CC50 at 72 h, please, for this compound: `O=C(/C=C/c1ccc(Cl)c(Cl)c1)NCCNC(=O)/C=C/c1ccc(Cl)c(Cl)c1`
OUT: 653 µM

IN: Let me know recorded CC50 at 72 h for `O=C(/C=C/c1ccc(Cl)cc1)NCCNC(=O)/C=C/c1ccc(Cl)cc1` , thanks.
OUT: 788 µM

IN: Could you please provide reported CC50 at 72 h for `O=C(/C=C/c1ccccc1)NCCN1CCN(C(=O)/C=C/c2ccccc2)CC1` ? Thanks!
OUT: 480 µM

IN: Specify CC50 at 72 h for `COc1ccc(/C=C/C(=O)NCCNC(=O)/C=C/c2ccc(OC)cc2)cc1` and stop.
OUT: 680 µM
